Source listed as ChEMBL document CHEMBL1201862.

// GI50 lookup, one value per entry
Test system: SF-268
TEST DESCRIPTION: NCI tumour cell line growth inhibition, 48 h
Active and inactive are the calls of the source. Rule as the data show it: active = GI50 up to about 1.1 µM and inactive = higher.

COMPOUND	GI50
COc1ccc(-c2cc(-c3ccccc3)nc(N)n2)c(O)c1	17.8 µM (inactive)
CCOC(=O)c1cnc2c(ccc3ncccc32)c1NCCCN(CC)CC	90.6 µM (inactive)
NNC(=O)CC(=O)Nc1cccc(Cl)c1	> 100 µM (inactive)
COC1=CC(=O)c2nc3ccccc3c3ccnc1c23	3.94 µM (inactive)
Cc1ccc2nc(CN(CCO)CCO)cc(=O)n2c1	> 100 µM (inactive)
Cc1cc2c(cc1C)[n+]([O-])c(C(F)(F)F)c(C(=O)c1ccccc1)[n+]2[O-]	1.91 µM (inactive)
COc1cc(C)c2c(c1)CN1CN2Cc2cc(OC)cc(C)c21	48.1 µM (inactive)
CC(C)OC(=O)c1ccc(NCC2=CC(=O)C=CC2=O)cc1Cl	12.1 µM (inactive)
NNC1=NC(=O)NC(=O)C1	> 100 µM (inactive)
NNC(=O)CSc1nc2ccccc2c(=O)n1N	39.9 µM (inactive)
NC1CC2C3CCC2C1C3=O (centres undefined)	> 100 µM (inactive)
CCOc1cc(C=O)c2c(ccc3ccc(OC)c(OC)c32)c1OC	> 100 µM (inactive)
Cc1nc(N)c(N2CCN(S(=O)(=O)N(Cc3ccccc3)Cc3ccccc3)CC2)c(O)n1	28.6 µM (inactive)
COc1cccc(-n2c3nc(=O)n(C)c(=O)c-3nc3ccccc32)c1	16.7 µM (inactive)
COc1cc(-c2cc(=O)c3c(O)c(OC)c(OC)c(OC)c3o2)cc(OC)c1OC	8.71 µM (inactive)
CCCCCCCCCCCCCCCCCc1cccc(OCOCCOC)c1C(=O)O	17.2 µM (inactive)
CN(/N=N/c1[nH]cnc1C(N)=O)C1CCCCC1	> 100 µM (inactive)
Cc1cc(C)nc(NS(=O)(=O)c2ccc(Nc3c4ccccc4nc4c(C(=O)N5CCN(CCO)CC5)ccc(Cl)c34)cc2)n1	76.9 µM (inactive)
O=C1C(=O)N(c2ccc(Cl)cc2)C(=O)C(=O)C1c1nc2ccccc2o1	> 100 µM (inactive)
COc1ccc(/C=C2\N=C(N3CCCC(CO)C3)NC2=O)cc1 (centres undefined)	> 100 µM (inactive)
NC(=O)NC(=O)c1cccc(NC(=O)CCl)c1	1.91 µM (inactive)
O=C(O)CCC(NC(=O)c1ccccc1)C(=O)O (centres undefined)	> 100 µM (inactive)
CC1=NN2C(c3ccc([N+](=O)[O-])cc3)=CSC2=NC(C)(C)C1	> 100 µM (inactive)
COc1ccc(CC2C3=C(CCCC3)CCN2C)cc1 (centres undefined)	43.1 µM (inactive)

* * *

// GI50 lookup, one value per entry
Test system: OVCAR-8
TEST DESCRIPTION: NCI tumour cell line growth inhibition, 48 h
Active and inactive are the calls of the source. Rule as the data show it: active = GI50 up to about 1.1 µM and inactive = higher.
MEASURED ENDPOINT: GI50

COMPOUND	RESULT
COc1ccc(-c2cc(-c3ccccc3)nc(N)n2)c(O)c1	8.69 µM (inactive)
O=C(NC/C=C/CO)c1ccccc1	> 100 µM (inactive)
CSc1nc(Cl)c2c(n1)Sc1nc3ccccc3n1C2O (centres undefined)	2.84 µM (inactive)
CC1(C)N=C(N)N=C(N)N1c1cccc(OCc2cccc([N+](=O)[O-])c2)c1	99.8 µM (inactive)
